Reference source for all entries: patent EP2236138A1

Target: 5HT1D (Homo sapiens, UniProt P28221)
Sequence (P28221 whole entry): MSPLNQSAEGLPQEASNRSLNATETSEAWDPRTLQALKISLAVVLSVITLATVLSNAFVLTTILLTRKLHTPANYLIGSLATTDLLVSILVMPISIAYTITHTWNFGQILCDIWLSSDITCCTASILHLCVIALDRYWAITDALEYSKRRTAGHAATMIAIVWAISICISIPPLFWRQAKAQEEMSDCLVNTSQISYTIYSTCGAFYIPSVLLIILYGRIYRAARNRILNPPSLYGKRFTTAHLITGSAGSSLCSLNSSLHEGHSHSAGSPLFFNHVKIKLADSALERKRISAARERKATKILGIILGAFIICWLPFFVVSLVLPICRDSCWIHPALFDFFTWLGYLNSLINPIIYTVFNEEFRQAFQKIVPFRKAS
Quantity measured: Ki

// returns reported Ki for input `OC1(c2ccc(Cl)cc2)CCN(Cc2c[nH]c3ccccc23)CC1` > 1000 nM

* * *

Target: 5HT2B (Homo sapiens)
Sequence (P41595 whole entry): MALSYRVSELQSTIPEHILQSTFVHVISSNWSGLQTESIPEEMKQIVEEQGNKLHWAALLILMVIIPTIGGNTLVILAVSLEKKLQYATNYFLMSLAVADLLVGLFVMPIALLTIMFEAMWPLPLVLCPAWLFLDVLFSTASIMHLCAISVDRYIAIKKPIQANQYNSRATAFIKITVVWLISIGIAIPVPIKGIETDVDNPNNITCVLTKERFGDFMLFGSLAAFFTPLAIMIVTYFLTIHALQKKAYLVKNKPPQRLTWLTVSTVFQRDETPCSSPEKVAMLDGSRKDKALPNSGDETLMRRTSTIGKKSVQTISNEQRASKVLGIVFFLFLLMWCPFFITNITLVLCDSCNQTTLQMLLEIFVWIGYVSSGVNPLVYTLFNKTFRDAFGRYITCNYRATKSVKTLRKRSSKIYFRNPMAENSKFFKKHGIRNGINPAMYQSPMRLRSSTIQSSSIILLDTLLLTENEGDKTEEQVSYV
pKi: −log10 of the molar value.
Quantity measured: pKi

// returns reported pKi for input `OC1(c2ccc(Cl)cc2)CCN(Cc2c[nH]c3ccccc23)CC1` 6.00 to 7.00
